molecular target: UniProt P43235; test: Inhibition of human recombinant cathepsin K by fluorescence assay
readout name: IC50 (nM)
Write down the numeric answer in nM and omit the unit.

# annotated cases, reported IC50 shown
* CC(=O)N1CCN(c2ccc(OCc3cc4cnc(C#N)nc4n3CCC3CCCC3)cc2)CC1 | 79
* CC(=O)N1CCN(c2ccc(OCc3cc4cnc(C#N)nc4n3CCC3CCC(F)(F)CC3)cc2)CC1 | 5400

Please turn your attention to the following entry.
Requested read-out: IC50. Entry: CC(=O)N1CCN(c2ccc(OCc3cc4cnc(C#N)nc4n3CCC3CCCCC3)cc2)CC1
1650

----------
pIC50 reference
target: Cathepsin S (Homo sapiens, UniProt P25774); test: Inhibition of human recombinant cathepsin S by fluorescence assay
Sequence (P25774 whole entry): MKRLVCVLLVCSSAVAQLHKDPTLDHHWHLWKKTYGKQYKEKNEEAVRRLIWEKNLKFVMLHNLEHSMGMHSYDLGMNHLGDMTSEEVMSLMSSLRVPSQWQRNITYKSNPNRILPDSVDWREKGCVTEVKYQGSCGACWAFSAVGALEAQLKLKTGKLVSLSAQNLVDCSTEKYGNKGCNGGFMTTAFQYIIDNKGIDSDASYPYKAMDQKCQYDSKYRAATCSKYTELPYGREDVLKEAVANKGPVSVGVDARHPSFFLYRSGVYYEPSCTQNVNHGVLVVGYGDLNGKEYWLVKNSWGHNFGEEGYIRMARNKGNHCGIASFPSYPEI
Remember the convention: pIC50 equals -log10 of concentration in molar.

Guide cases for pIC50, answers given:
* CC(=O)N1CCN(c2ccc(OCc3cc4cnc(C#N)nc4n3CCC3CCCC3)cc2)CC1 | 8.30
* CC(=O)N1CCN(c2ccc(OCc3cc4cnc(C#N)nc4n3CCC3CCC(F)(F)CC3)cc2)CC1 | 8.00
* CC(=O)N1CCCN(c2ccc(OCc3cc4cnc(C#N)nc4n3CCC3CCCCC3)cc2)CC1 | 7.96

Dear colleague, I am looking for the recorded pIC50 of the following molecule: CC(=O)N1CCN(c2ccc(OCc3cc4cnc(C#N)nc4n3CCC3CCCCC3)c(F)c2)CC1
7.74

Looking for the measured pIC50 of CC(=O)N1CCN(c2ccc(OCc3cc4cnc(C#N)nc4n3CCc3ccc(Cl)cc3)cc2)CC1 , can you help?
7.77

Please look up its pIC50: CC(=O)N1CCN(c2ccc(OCc3cc4cnc(C#N)nc4n3CCC3CCCCCC3)cc2)CC1
7.30

Consider the molecule shown here: CC(=O)N1CCN(c2ccc(OCc3cc4cnc(C#N)nc4n3CCC3CCCCC3)cc2F)CC1 What is its recorded pIC50?
8.05

----------
target: Cathepsin B (Homo sapiens)
pIC50: −log10 of the molar value.
readout name: pIC50

Lookup: pIC50 / Cathepsin B (Homo sapiens) / CC(=O)N1CCN(c2ccc(OCc3cc4cnc(C#N)nc4n3CCC3CCC(F)(F)CC3)cc2)CC1
< 4.52

----------
target: Cathepsin K (Homo sapiens, UniProt P43235); assay: Inhibition of human recombinant cathepsin K by fluorescence assay
Sequence (P43235 whole entry): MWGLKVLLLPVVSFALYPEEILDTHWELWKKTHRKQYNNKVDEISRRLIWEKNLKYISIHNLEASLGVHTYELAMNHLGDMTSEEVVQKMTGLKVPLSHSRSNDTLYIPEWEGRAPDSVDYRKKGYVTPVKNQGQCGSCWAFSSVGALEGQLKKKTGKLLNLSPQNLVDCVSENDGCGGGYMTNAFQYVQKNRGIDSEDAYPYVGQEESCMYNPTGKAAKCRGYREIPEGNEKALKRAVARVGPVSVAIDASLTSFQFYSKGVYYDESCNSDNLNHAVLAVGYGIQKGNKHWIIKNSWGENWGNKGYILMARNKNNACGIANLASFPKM
readout name: pIC50
Hey, just a heads up that pIC50 is the negative log base 10 of the concentration in molar.

* CC(=O)N1CCN(c2ccc(OCc3cc4cnc(C#N)nc4n3CCC3CCCCC3)c(F)c2)CC1 | 5.23

Read the next record carefully.
I would be grateful if you could share the reported pIC50 for CC(=O)N1CCCN(c2ccc(OCc3cc4cnc(C#N)nc4n3CCC3CCCCC3)cc2)CC1 .
6.54

----------
assay: Inhibition of human cathepsin X
readout name: pKi
As a rule, pKi stands for the negative log10 of the concentration, concentration in M.

Fill blank: measured pKi of the compound CC(=O)N1CCN(c2ccc(OCc3cc4cnc(C#N)nc4n3CCC3CCC(F)(F)CC3)cc2)CC1 is ____.
6.19

----------
biological target: Cathepsin S (Homo sapiens, UniProt P25774); assay: Inhibition of human recombinant cathepsin S by fluorescence assay
readout name: Ki (nM)
Numbers only; they are read as nM.

Param item = CC(=O)N1CCN(c2ccc(OCc3cc4cnc(C#N)nc4n3CCC3CCC(F)(F)CC3)cc2)CC1 ; retrieve measured Ki.
4

src = ChEMBL document CHEMBL1140079
